I'd be grateful if you could share measured chromatographic logP for these entries.
Test: Rm: lipophilic-hydrophilic balance from reversed phase partition chromatography
Format: physicochemical
Settings: linearly related to 1-octanol/water partition coefficients
// no unit string in output, number only

GET /values?readout=chromatographic logP&item= `CN(C)CCNC(=O)c1cccc2ccc(-c3ccc(O)cc3)nc12` -0.33

Reported chromatographic logP for `CN(C)CCCNC(=O)c1cccc2ccc(-c3ccccc3)nc12` : what is it? 0.06

I would be grateful if you could share the reported chromatographic logP for `CN(C)CCCCCNC(=O)c1cccc2ccc(-c3ccccc3)nc12` . 0.21

Consider the compound shown here: `CN(C)CCNC(=O)c1cccc2ccc(-c3ccc(N)cc3)nc12` What is its recorded chromatographic logP? -0.76

Which chromatographic logP value belongs to `CN(C)CCCCNC(=O)c1cccc2ccc(-c3ccccc3)nc12` ? 0.14

###

So I've got a bunch of compounds here, and I need their chromatographic logP values.
Test: Rm: lipophilic-hydrophilic balance from reversed phase partition chromatography
Format: physicochemical
Details: linearly related to 1-octanol/water partition coefficients
Description: Rm-a measure of the compound's liphophilic-hydrophilic balance from reversed phase partition chromatography. Rm is linearly related to partition coefficients obtained in the 1-octanol/water system.
API doc: respond with a numeric literal and nothing else, no unit.

What does the record list as chromatographic logP for `CN(C)CCNC(=O)c1cccc2ccc(-c3cccc(Cl)c3)nc12` ? 0.05

Param item = `CN(C)CCNC(=O)c1cccc2ccc(-c3ccccn3)nc12` ; retrieve measured chromatographic logP. -1.43

For the compound shown here, `COc1ccc(-c2ccc3cccc(C(=O)NCCN(C)C)c3n2)cc1` , give the reported chromatographic logP. -0.16

Given `CN(C)CCNC(=O)c1cccc2ccc(-c3cccnc3)nc12` , state its recorded chromatographic logP. -0.58

Bench note: what chromatographic logP did `CN(C)CCNC(=O)c1cccc2ccc(-c3ccc(Cl)cc3)nc12` show? 0.05

Look at this compound and give its reported chromatographic logP. `CN(C)CCNC(=O)c1cccc2ccc(-c3ccc(NS(C)(=O)=O)cc3)nc12` -0.38

Fill in the blank: the reported chromatographic logP of `CN(C)CCNC(=O)c1cccc2ccc(-c3ccc([N+](=O)[O-])cc3)nc12` is ____. -0.18

Suppose we examine the compound `CN(C)CCNC(=O)c1cccc2ccc(-c3ccncc3)nc12` ; what chromatographic logP value has been reported? -0.87

Given the compound `CN(C)CCNC(=O)c1cccc2ccc(-c3ccccc3Cl)nc12` , what is its reported chromatographic logP? 0.15

Which measured chromatographic logP value corresponds to `CN(C)CCNC(=O)c1cccc2ccc(-c3ccccc3)nc12` ? -0.01
